Tested on: OVCAR-4 ovarian
protocolNotes: NCI tumour cell line growth inhibition, 48 h

>  <molecule>
O=c1cc(-c2ccccc2)oc2c1ccc1ccccc12

>  <GI50>
21200 nM

$$$$
>  <molecule>
COc1ccc(C2CC(c3ccc(OC)cc3O)=NN2c2ccc(S(N)(=O)=O)cc2)cc1 (centres undefined)

>  <GI50>
30800 nM

$$$$
>  <molecule>
Cc1c[nH]c(=O)n(Cc2nnc(CCC(=O)c3nc4ccccc4[nH]3)o2)c1=O

>  <GI50>
629 nM

$$$$
>  <molecule>
C#CCOC(=O)/C=C/C(=O)Oc1ccc2c(C)cc(=O)oc2c1

>  <GI50>
> 100000 nM

$$$$
>  <molecule>
COc1ccc2nc3c(cc2c1)C(=O)CC(c1ccccc1)C3 (centres undefined)

>  <GI50>
> 100000 nM

$$$$
>  <molecule>
CC(=O)Nc1ccc(OC(C)=O)cc1

>  <GI50>
< 10 nM

$$$$
>  <molecule>
CC(C)CCCCCCCCCCCCC(=O)NCC(=O)NC1C(C)OC(Nc2ncnc3nc[nH]c23)C(O)C1O (centres undefined)

>  <GI50>
14.8 nM

$$$$
>  <molecule>
O=C(c1ccc2ccccc2c1)c1c(C(F)(F)F)n([O-])c2cc(C(F)(F)F)ccc2[n+]1=O

>  <GI50>
1220 nM

$$$$
>  <molecule>
CCOC(=O)c1c2c(n3ccc(NC(=O)CCN4CCCCC4)cc13)C(=O)c1ncccc1C2=O

>  <GI50>
1420 nM

$$$$
>  <molecule>
O=C(c1ccccc1)C1OC1C(=O)c1ccccc1 (centres undefined)

>  <GI50>
3840 nM

$$$$
>  <molecule>
CC[C@]12C=CCN3CC[C@@]4(c5ccc(OC)cc5N(C)[C@H]4[C@@](O)(C(=O)OC)[C@@H]1OC(=O)CCC(=O)O[C@H]1CC[C@H]4[C@@H]5CC[C@H]6CC(=O)CC[C@]6(C)[C@H]5CC[C@]14C)[C@@H]32

>  <GI50>
2580 nM

$$$$
>  <molecule>
O=C(Nc1n[nH]c2nc(-c3ccc(O)cc3)c(Br)cc12)C1CC1

>  <GI50>
5170 nM

$$$$
>  <molecule>
CC(C)=Cc1cccc2[nH]c(O)c(N=Nc3ccc(S(N)(=O)=O)cc3)c12

>  <GI50>
1260 nM

$$$$
>  <molecule>
CCCS(=O)(=O)Nc1cccc(Nc2ncnc3cc(NC(=O)CCl)ccc23)c1Cl

>  <GI50>
2950 nM

$$$$
